# System: Klebsiella pneumoniae
# condition_details: Concentration 20 uM; ASSAY_TEST Inhibition of Bacterial Growth; detection method Absorption (OD600); MEDIA CAMHB; plate type 384well; NBS; CORNING #3640; time 18 hr
# Description: Antibacterial activity against Klebsiella pneumoniae MDR ATCC 70063 (CO-ADD:GN_003); MIC in CAMBH media using NBS plates, by OD(600)
Entries with a potency or affinity are not part of this list.
Label scheme for Inhibition: lower than 10% is 0, 10% and above is 1.

| compound | discrete_label |
| --- | --- |
| Oc1c(Cl)cc(Cl)cc1C1Nc2ccccc2-n2cccc21 (configuration not stated) | 1 |
| NC(CC(=O)Nc1cc(C(F)(F)F)ccc1Cl)=NO | 1 |
| COc1cc2c(cc1OC)[N+]([O-])=C(c1ccccc1)C2=O | 0 |
| Cn1c(=O)c2nc(SCc3ccccn3)[nH]c2n(C)c1=S | 1 |
| O=C(O)c1nn(-c2ccccc2-c2nnc(O)nc2O)c(=O)[nH]c1=O | 1 |
| CN(C)c1ccc(/C=C2/C=C(c3ccc4c(c3)CCCC4)OC2=O)cc1 | 0 |
| O=C(Nc1cccc2ccccc12)c1ccccc1 | 0 |
| COC(=NC(C)C)NC(C)C | 0 |
| c1ccc(-c2nc3ccccc3s2)nc1 | 1 |
| O=C(c1ccccc1)C1C(c2ccccc2)C1[N+](=O)[O-] (configuration not stated) | 0 |
| Cc1cn(C2CC(O)C(CO)O2)c(=O)n(Cc2ccccc2)c1=O (configuration not stated) | 1 |
| CC1=CC2(C)NC(=O)C(C)C12 (configuration not stated) | 0 |
| c1ccc(NCCSc2nc3ccccc3s2)cc1 | 1 |
| O=C(Nc1ccc(Oc2ccc(NC(=O)Nc3ccccc3Cl)cc2)cc1)Nc1ccccc1Cl | 1 |
| C(=C\c1ccccn1)/c1ccccn1 | 0 |
| CCN(c1ccccc1)c1nc(Cl)nc2c1cnn2C | 1 |
| CC(C)(C)c1ccc(C(=O)N2CCOC23CCCCC3)cc1 | 0 |
| CC1=C(O)C(=O)C(c2c(C)cc(C)c(Br)c2C)=C(O)C1=O | 1 |
| COc1ccc(C(C)=O)cc1CO/N=C1\CSCc2ccccc21 | 0 |
| O=C(O)/C(=C/c1ccccc1)c1ccccc1 | 0 |
| Nc1cnc(Nc2ccc(Br)cc2)nc1N.O=S(=O)(O)O | 0 |
| O=C1CCCc2cc3c(cc21)CC1(C3)Cc2cc3c(cc2C1)C(=O)CCC3 | 1 |
| CCCCCn1cnc2c(S)nc(N)nc21 | 0 |
| CN(CC(=O)O)Cc1oc(CO)cc(=O)c1O | 1 |
| CN(c1cccnc1)c1[nH]cnc2nncc1-2 | 0 |
| COc1cc2c(c(OC)c1O)C(=O)CO2 | 0 |
| CC(=O)Nc1ccc2cc3ccc(NC(C)=O)cc3nc2c1 | 1 |
| Clc1ccc(/C=C/c2nc(Cl)c(-c3ccc(Cl)cc3)c(Cl)n2)cc1 | 1 |
| COC(=O)c1ccc(Cn2cnc3c(Cl)ncnc32)cc1 | 0 |
| Cc1csc(NC(=O)c2ccc(C(=O)Nc3nc(C)cs3)cc2)n1 | 1 |
| C=CCOc1ccc(S(C)(=O)=O)cc1 | 0 |
| O=C1COc2cccnc2N1 | 1 |
| CNC1(C(N)=O)CCNCC1 | 1 |
| CC(=C/c1ccccc1)/C=C1/NC(=S)NC1=O | 1 |
| O=C(O)C(Cc1ccccc1N(CCO)CCO)N1C(=O)c2ccccc2C1=O (configuration not stated) | 1 |
| Cl/N=C1/C=CC=C/C1=N/Cl | 0 |
| NC(=O)CCC(C(=O)O)N1C(=O)c2ccc(O)cc2C1=O (configuration not stated) | 1 |
| O=C(Nc1ccc2ccccc2c1)c1cccc(F)c1 | 0 |
| CCCCCC(=O)C(=O)c1ccc(O)cc1O | 1 |
| O=C(O)CCC1(c2ccccc2)NC(=O)NC1=O (configuration not stated) | 0 |
| CC1CCCC(CC(=O)O)(CC(=O)O)C1 (configuration not stated) | 0 |
| CN(C)N1C(=O)c2c(Cl)c(Cl)c(Cl)c(Cl)c2C1=O | 0 |
| CCOC(=O)/C(C#N)=C/c1cccc(C)c1 | 0 |
| CCOC(=O)C(=Cc1ccc(Br)cc1)C(=O)OCC | 1 |
| COc1cc2c(=O)n3c4c(cccc4c2cc1OC)CC3 | 0 |
| O=C(Nc1ccc(NC(=O)c2ccncc2)cc1)c1ccncc1 | 1 |
| NNC(=O)Cc1cc(O)[nH]n1 | 0 |
